Give measured microsomal CLint at 1 uM for each item. Keep answers brief.
Assay: Metabolic stability in human hepatic microsome
Assay type: in vitro ADME
Settings: microsomes, pH 7.4; human hepatic microsome, NADPH(+); read-out: CL NADPH(+)
Positions of bridges follow the written chain, without caps; N, C: chain ends. Non-standard residues stand in square brackets, D forms with d. Residues, ends and D or L forms follow the SMILES beside them. *: point of attachment. NMeF = CN[C@@H](Cc1ccccc1)C(=O)O; NMeL = CN[C@@H](CC(C)C)C(=O)O; NMeV = CN[C@H](C(=O)O)C(C)C; NMeA = CN[C@@H](C)C(=O)O; Piperidide = C1CCN(*)CC1; dNMeA = CN[C@H](C)C(=O)O; Sar = CNCC(=O)O; tBu = CC(C)(C)*
Hi! Could you send only the number? It should be in µL/min/mg, unit omitted.

Report microsomal CLint at 1 uM for CC(C)C[C@H]1C(=O)N(C)[C@@H](Cc2ccccc2)C(=O)N[C@H](C(=O)N2CCCCC2)CC(=O)N(C)CC(=O)N[C@@H]([C@@H](C)O)C(=O)N(C)[C@@H](C)C(=O)N[C@@H](COC(C)(C)C)C(=O)N(C)[C@@H](Cc2ccccc2)C(=O)N1C [DP-521] ([Sar]T[NMeA]S(tBu)[NMeF][NMeL][NMeF]D-Piperidide; lactam N-8) please.
125

Report microsomal CLint at 1 uM for CC(C)C[C@@H]1NC(=O)[C@H](CC(C)C)N(C)C(=O)[C@H](C)N(C)C(=O)[C@@H](C)N(C)C(=O)C[C@@H](C(=O)N2CCCCC2)NC(=O)[C@H]([C@@H](C)O)NC(=O)CN(C)C(=O)[C@H](Cc2ccccc2)NC(=O)[C@H](CC(C)C)N(C)C(=O)[C@H](C(C)C)N(C)C(=O)[C@H](Cc2ccccc2)N(C)C1=O [DP-165] ([dNMeA][NMeA][NMeL]L[NMeF][NMeV][NMeL]F[Sar]TD-Piperidide; lactam N-11) please.
42

Report microsomal CLint at 1 uM for CC[C@H](C)[C@@H]1NC(=O)[C@H](CC(C)C)N(C)C(=O)[C@H](C)N(C)C(=O)[C@H]([C@@H](C)O)NC(=O)[C@H](Cc2ccccc2)N(C)C(=O)[C@H](C)N(C)C(=O)[C@@H](C)N(C)C(=O)C[C@@H](C(=O)N(C)[C@@H](Cc2ccccc2)C(=O)N(C)[C@@H](Cc2ccccc2)C(=O)N[C@@H](C)C(=O)N2CCCCC2)NC(=O)[C@H](C(C)C)N(C)C(=O)[C@H](CC(C)C)N(C)C1=O [DP-300] ([dNMeA][NMeA][NMeF]T[NMeA][NMeL]I[NMeL][NMeV]D[NMeF][NMeF]A-Piperidide; lactam N-10) please.
166
